This collection of values is drawn from patent US20260327204A1.

- system_under_test: CDK13 (Homo sapiens, UniProt Q14004)
- Sequence (Q14004 whole entry): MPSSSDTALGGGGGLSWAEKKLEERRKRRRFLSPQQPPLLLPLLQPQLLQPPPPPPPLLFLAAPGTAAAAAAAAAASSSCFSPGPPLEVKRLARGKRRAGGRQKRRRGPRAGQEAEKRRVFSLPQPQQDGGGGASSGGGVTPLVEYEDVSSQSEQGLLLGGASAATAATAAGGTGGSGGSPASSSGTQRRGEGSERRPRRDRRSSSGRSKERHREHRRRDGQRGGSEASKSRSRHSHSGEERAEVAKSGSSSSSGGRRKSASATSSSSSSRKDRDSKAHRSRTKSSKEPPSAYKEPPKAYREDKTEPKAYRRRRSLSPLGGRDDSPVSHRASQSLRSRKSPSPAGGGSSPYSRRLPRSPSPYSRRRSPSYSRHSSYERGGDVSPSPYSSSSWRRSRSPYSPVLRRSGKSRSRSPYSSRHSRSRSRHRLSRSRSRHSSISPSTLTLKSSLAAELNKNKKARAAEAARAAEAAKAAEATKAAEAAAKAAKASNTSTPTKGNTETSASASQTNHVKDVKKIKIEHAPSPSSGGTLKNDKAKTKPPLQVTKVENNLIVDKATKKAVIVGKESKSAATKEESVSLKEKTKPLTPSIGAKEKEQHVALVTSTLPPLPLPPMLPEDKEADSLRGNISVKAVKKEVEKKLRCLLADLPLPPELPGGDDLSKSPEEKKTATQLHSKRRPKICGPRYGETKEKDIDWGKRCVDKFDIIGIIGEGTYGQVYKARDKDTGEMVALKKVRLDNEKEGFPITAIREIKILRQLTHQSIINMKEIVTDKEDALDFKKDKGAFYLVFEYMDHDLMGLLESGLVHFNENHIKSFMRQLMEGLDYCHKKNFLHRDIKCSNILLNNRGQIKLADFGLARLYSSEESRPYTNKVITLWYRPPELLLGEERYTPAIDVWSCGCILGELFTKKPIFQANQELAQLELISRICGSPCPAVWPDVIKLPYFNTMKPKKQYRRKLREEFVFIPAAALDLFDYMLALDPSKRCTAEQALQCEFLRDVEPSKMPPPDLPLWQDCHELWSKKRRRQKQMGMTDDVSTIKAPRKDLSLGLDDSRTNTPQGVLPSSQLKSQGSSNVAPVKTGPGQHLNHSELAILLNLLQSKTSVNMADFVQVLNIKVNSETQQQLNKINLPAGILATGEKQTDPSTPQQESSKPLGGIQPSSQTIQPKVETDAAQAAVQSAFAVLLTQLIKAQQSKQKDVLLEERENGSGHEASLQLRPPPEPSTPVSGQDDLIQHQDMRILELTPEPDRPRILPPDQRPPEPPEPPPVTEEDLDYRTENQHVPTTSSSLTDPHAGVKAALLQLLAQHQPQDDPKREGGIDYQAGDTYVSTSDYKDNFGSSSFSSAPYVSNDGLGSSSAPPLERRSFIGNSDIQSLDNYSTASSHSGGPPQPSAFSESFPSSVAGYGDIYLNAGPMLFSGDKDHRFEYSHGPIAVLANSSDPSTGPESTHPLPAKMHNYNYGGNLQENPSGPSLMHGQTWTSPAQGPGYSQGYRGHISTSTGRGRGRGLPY
- Sequence (O75909 whole entry partner): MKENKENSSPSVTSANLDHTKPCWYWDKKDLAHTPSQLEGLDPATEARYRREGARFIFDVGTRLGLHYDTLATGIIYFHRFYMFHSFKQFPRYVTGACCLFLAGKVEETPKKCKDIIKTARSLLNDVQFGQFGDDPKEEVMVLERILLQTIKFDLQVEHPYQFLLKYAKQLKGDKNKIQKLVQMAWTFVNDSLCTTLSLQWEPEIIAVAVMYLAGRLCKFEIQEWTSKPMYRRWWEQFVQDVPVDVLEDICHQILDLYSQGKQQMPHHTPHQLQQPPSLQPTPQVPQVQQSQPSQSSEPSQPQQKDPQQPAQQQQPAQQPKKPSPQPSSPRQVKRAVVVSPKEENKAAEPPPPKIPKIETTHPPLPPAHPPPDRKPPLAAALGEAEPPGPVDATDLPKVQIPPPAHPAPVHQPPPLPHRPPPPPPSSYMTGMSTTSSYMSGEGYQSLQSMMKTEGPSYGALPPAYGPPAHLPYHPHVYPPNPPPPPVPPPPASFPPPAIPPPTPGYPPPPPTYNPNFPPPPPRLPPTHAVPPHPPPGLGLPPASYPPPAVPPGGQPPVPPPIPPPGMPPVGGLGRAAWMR
- procedure_summary: Western blot degradation of CDK13 (Example 3)
- Format: cell-based
- Design: degradation of CDK12/13 protein in leukemia cells KASUMI-1, MV4-11, and Jurkat; endogenous in cells
- cond: DC50 classes; cell line not given; read-out: CDK13 degradation Activity
// reported DC50 for each item listed

Illustrative cases are given below, each with its answer.
compound | endpoint_result
CC(=O)N(c1ccc(N2CCN(CC3CCN(c4ccc5c(c4)C(=O)N(C4CCC(=O)NC4=O)C5=O)C3)CC2)cc1)[C@H]1CC[C@H](Nc2ncc3ccccc3n2)CC1 (stereo partly drawn) | 3 to 10 µM
CC(=O)N(c1ccc(N2CCN(C3CCN(c4ccc5c(c4)C(=O)N(C4CCC(=O)NC4=O)C5=O)C3)CC2)cc1)[C@H]1CC[C@H](Nc2ncc3ccccc3n2)CC1 (stereo partly drawn) | 3 to 10 µM
CC(=O)N(c1ccc(-c2cnc(N3CCN(c4cc(NC5CCC(=O)NC5=O)ccc4F)CC3)nc2)cc1)[C@H]1CC[C@H](Nc2ncc3ccccc3n2)CC1 (stereo partly drawn) | 1 to 3 µM
CC(=O)N(c1ccc(-c2cnc(N3CCN(c4ccc5c(c4)C(=O)N(C4CCC(=O)NC4=O)C5=O)CC3)nc2)cc1)[C@H]1CC[C@H](Nc2ncc3ccccc3n2)CC1 (stereo partly drawn) [Formula 107] | < 0.1 µM
CC(=O)N(c1ccc(-c2ccc(CN3CCN(c4ccc5c(c4)C(=O)N(C4CCC(=O)NC4=O)C5=O)CC3)nc2)cc1)[C@H]1CC[C@H](Nc2ncc3ccccc3n2)CC1 (stereo partly drawn) | 0.1 to 0.5 µM

Please look at the following compound next.
Name the recorded DC50 of the item CC(=O)N(c1ccc(N2CCN(c3ccc4c(c3)C(=O)N(C3CCC(=O)NC3=O)C4=O)CC2)cc1)[C@H]1CC[C@H](Nc2ncc3ccccc3n2)CC1 (stereo partly drawn) in your answer.
3 to 10 µM

###

// reported DC50 for each item listed
- system_under_test: CDK13 (Homo sapiens)
- procedure_summary: Western blot degradation of CDK13 (Example 3)
- Type: cell-based
- Parameters: degradation of CDK12/13 protein in leukemia cells KASUMI-1, MV4-11, and Jurkat; endogenous in cells
- cond: DC50 classes; cell line not given; read-out: CDK13 degradation Activity

Illustrative cases are given below, each with its answer.
compound | DC50
CC(=O)N(c1ccc(-c2ccc(N3CCN(C(=O)N[C@H](C(=O)N4C[C@H](O)CC4C(=O)N[C@@H](C)c4ccc(-c5scnc5C)cc4)C(C)(C)C)CC3)nc2)cc1)[C@H]1CC[C@H](Nc2ncc3ccccc3n2)CC1 (stereo partly drawn) [Formula 145] | 3000 to 10000 nM
CC(=O)N(c1ccc(-c2cnc(N3C[C@@H]4C[C@H]3CN4CC(=O)N[C@H](C(=O)N3C[C@H](O)C[C@H]3C(=O)N[C@@H](C)c3ccc(-c4scnc4C)cc3)C(C)(C)C)nc2)cc1)[C@H]1CC[C@H](Nc2ncc3ccccc3n2)CC1 [Formula 142] | < 100 nM
CC(=O)N(c1ccc(-c2cnn(C3CCN(c4ccc5c(c4)C(=O)N(C4CCC(=O)NC4=O)C5=O)CC3)c2)cc1)[C@H]1CC[C@H](Nc2ncc3ccccc3n2)CC1 (stereo partly drawn) [Formula 117] | 500 to 1000 nM
CC(=O)N(c1ccc(-c2cnc(N3CCN(c4cnn([C@H](C(=O)N5C[C@H](O)C[C@H]5C(=O)N[C@@H](C)c5ccc(-c6scnc6C)cc5)C(C)C)c4)CC3)nc2)cc1)[C@H]1CC[C@H](Nc2ncc3ccccc3n2)CC1 [Formula 154] | < 100 nM
CC(=O)N(c1ccc(-c2cnc(O[C@H]3CCN(c4ccc5c(c4)C(=O)N(C4CCC(=O)NC4=O)C5=O)C3)nc2)cc1)[C@H]1CC[C@H](Nc2ncc3ccccc3n2)CC1 (stereo partly drawn) [Formula 110] | 500 to 1000 nM

Please look at the following compound next.
Name the recorded DC50 of the item CC(=O)N(c1ccc(-c2cnc(N3CCN(c4cc5c(cc4F)C(=O)N(C4CCC(=O)NC4=O)C5=O)CC3)nc2)cc1)[C@H]1CC[C@H](Nc2ncc3ccccc3n2)CC1 (stereo partly drawn) [Formula 114] in your answer.
1000 to 3000 nM

###

- system_under_test: CDK12 (Homo sapiens, UniProt Q9NYV4)
- Sequence (Q9NYV4 whole entry): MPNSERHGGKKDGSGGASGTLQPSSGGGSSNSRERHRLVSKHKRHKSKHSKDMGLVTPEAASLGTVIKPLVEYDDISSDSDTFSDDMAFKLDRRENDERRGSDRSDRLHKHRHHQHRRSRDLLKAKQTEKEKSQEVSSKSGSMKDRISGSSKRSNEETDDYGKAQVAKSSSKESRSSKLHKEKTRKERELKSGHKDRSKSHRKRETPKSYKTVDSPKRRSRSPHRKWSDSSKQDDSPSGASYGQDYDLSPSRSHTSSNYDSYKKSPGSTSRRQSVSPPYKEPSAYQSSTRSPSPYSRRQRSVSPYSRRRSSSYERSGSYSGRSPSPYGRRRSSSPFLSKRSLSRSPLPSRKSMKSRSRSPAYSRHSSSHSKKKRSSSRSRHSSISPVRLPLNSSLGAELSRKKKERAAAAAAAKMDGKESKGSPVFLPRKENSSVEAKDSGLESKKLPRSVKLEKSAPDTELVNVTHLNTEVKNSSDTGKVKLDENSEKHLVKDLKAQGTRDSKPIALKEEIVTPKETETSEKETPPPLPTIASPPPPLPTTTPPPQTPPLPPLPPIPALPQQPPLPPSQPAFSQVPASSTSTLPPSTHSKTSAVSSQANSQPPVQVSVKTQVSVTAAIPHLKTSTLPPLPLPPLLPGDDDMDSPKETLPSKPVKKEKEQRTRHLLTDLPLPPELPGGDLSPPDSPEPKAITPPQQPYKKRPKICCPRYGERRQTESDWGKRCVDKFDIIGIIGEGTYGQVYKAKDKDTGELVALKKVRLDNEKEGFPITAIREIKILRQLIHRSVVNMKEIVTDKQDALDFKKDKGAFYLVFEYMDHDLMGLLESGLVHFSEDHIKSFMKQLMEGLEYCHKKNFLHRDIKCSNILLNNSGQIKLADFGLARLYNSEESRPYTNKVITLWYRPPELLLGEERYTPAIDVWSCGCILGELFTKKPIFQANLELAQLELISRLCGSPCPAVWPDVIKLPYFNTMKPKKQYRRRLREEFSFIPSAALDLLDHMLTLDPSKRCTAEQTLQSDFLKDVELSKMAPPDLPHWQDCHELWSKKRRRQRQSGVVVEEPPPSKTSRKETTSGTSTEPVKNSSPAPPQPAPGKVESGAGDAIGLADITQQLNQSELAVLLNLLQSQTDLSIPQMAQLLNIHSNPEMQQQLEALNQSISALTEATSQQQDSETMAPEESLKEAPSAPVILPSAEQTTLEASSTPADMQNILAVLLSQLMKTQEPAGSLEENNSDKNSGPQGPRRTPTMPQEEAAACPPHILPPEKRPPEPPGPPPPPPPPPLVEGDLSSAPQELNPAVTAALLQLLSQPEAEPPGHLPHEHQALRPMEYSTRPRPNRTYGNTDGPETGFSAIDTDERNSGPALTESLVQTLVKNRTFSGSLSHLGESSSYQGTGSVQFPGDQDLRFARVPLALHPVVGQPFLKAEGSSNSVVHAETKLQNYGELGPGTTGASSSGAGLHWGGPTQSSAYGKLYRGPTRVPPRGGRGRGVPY
- Sequence (O75909 whole entry partner): as the sequence (O75909 whole entry partner) above
- procedure_summary: Western blot degradation of CDK12 (Example 3)
- Type: cell-based
- Parameters: degradation of CDK12/13 protein in leukemia cells KASUMI-1, MV4-11, and Jurkat; endogenous in cells
- cond: DC50 classes; cell line not given; read-out: CDK12 degradation Activity
// reported DC50 for each item listed

compound | system_under_test | property | endpoint_result
CC(=O)N(c1ccc(N2CCN(C3CN(c4ccc5c(c4)C(=O)N(C4CCC(=O)NC4=O)C5=O)C3)CC2)cc1)[C@H]1CC[C@H](Nc2ncc3ccccc3n2)CC1 (stereo partly drawn) [Formula 124] | CDK12 (Homo sapiens, UniProt Q9NYV4) | DC50 | 1 to 3 µM
CC(=O)N(c1ccc(N2CCC3(CC2)CCN(c2ccc4c(c2)C(=O)N(C2CCC(=O)NC2=O)C4=O)CC3)cc1)[C@H]1CC[C@H](Nc2ncc3ccccc3n2)CC1 (stereo partly drawn) [Formula 120] | CDK12 (Homo sapiens, UniProt Q9NYV4) | DC50 | 3 to 10 µM
CC(=O)N(c1ccc(-c2cnn(C3CN(c4ccc5c(c4)C(=O)N(C4CCC(=O)NC4=O)C5=O)C3)c2)cc1)[C@H]1CC[C@H](Nc2ncc3ccccc3n2)CC1 (stereo partly drawn) [Formula 113] | CDK12 (Homo sapiens, UniProt Q9NYV4) | DC50 | 3 to 10 µM

Name the recorded DC50 of the item CC(=O)N(c1ccc(-c2ccc3c(c2)CCN(CC(=O)N[C@H](C(=O)N2C[C@H](O)C[C@H]2C(=O)N[C@@H](C)c2ccc(-c4scnc4C)cc2)C(C)(C)C)C3)cc1)[C@H]1CC[C@H](Nc2ncc3ccccc3n2)CC1 [Formula 149] in your answer.
0.5 to 1 µM

Name the recorded DC50 of the item CC(=O)N(c1ccc(-c2cnc(O[C@H]3CCN(c4ccc5c(c4)C(=O)N(C4CCC(=O)NC4=O)C5=O)C3)nc2)cc1)[C@H]1CC[C@H](Nc2ncc3ccccc3n2)CC1 (stereo partly drawn) [Formula 110] in your answer.
1 to 3 µM

Name the recorded DC50 of the item CC(=O)N(c1ccc(-c2cnc(N3C[C@@H]4C[C@H]3CN4CC(=O)N[C@H](C(=O)N3C[C@H](O)C[C@H]3C(=O)N[C@@H](C)c3ccc(-c4scnc4C)cc3)C(C)(C)C)nc2)cc1)[C@H]1CC[C@H](Nc2ncc3ccccc3n2)CC1 [Formula 142] in your answer.
< 0.1 µM

Name the recorded DC50 of the item CC(=O)N(c1ccc(-c2ccc(N3CCN(CC(=O)N[C@H](C(=O)N4C[C@H](O)C[C@H]4C(=O)N[C@@H](C)c4ccc(-c5scnc5C)cc4)C(C)(C)C)CC3)nc2)cc1)[C@H]1CC[C@H](Nc2ncc3ccccc3n2)CC1 [Formula 147] in your answer.
< 0.1 µM

Name the recorded DC50 of the item CC(=O)N(c1ccc(-c2cnc(O[C@@H]3CCN(c4ccc5c(c4)C(=O)N(C4CCC(=O)NC4=O)C5=O)C3)nc2)cc1)[C@H]1CC[C@H](Nc2ncc3ccccc3n2)CC1 (stereo partly drawn) [Formula 109] in your answer.
0.1 to 0.5 µM

Name the recorded DC50 of the item CC(=O)N(c1ccc(-c2ccc(C(=O)N[C@H]3CCC(=O)NC3=O)nc2)cc1)[C@H]1CC[C@H](Nc2ncc3ccccc3n2)CC1 [Formula 129] in your answer.
3 to 10 µM

###

// reported DC50 for each item listed
- system_under_test: CDK13 (Homo sapiens)
- procedure_summary: Western blot degradation of CDK13 (Example 2)
- Format: cell-based
- Set-up: degradation of CDK12/13 protein in leukemia cells KASUMI-1, MV4-11, and Jurkat; endogenous in cells
- cond: DC50 classes; cell line not given; read-out: CDK13 degradation Activity

Illustrative cases are given below, each with its answer.
compound | endpoint_result
N#Cc1ccc(N[C@H]2CC[C@H](N(C(=O)NCc3ccccc3)c3ccc(-c4ccc(=O)n(CCOCCOCCOCCOCCNc5cccc6c5C(=O)N(C5CCC(=O)NC5=O)C6=O)c4)cc3)CC2)nc1 (stereo partly drawn) | 1 to 3 µM
Cc1ncsc1-c1ccc([C@H](C)NC(=O)[C@@H]2C[C@@H](O)CN2C(=O)[C@@H](NC(=O)COCCN2CCN(c3ccc(N(C(=O)NCc4ccccc4)[C@H]4CC[C@H](Nc5ccc(C#N)cn5)CC4)cc3)CC2)C(C)(C)C)cc1 | 3 to 10 µM

Name the recorded DC50 of the item Cc1ncsc1-c1ccc([C@H](C)NC(=O)[C@@H]2C[C@@H](O)CN2C(=O)[C@@H](NC(=O)CN2CCC(C#Cc3ccc(N(C(=O)NCc4ccccc4)[C@H]4CC[C@H](Nc5ccc(C#N)cn5)CC4)cc3)CC2)C(C)(C)C)cc1 in your answer.
3 to 10 µM
